Test System: Or10a (Drosophila melanogaster)
Sequence (Q9VYZ1 whole entry): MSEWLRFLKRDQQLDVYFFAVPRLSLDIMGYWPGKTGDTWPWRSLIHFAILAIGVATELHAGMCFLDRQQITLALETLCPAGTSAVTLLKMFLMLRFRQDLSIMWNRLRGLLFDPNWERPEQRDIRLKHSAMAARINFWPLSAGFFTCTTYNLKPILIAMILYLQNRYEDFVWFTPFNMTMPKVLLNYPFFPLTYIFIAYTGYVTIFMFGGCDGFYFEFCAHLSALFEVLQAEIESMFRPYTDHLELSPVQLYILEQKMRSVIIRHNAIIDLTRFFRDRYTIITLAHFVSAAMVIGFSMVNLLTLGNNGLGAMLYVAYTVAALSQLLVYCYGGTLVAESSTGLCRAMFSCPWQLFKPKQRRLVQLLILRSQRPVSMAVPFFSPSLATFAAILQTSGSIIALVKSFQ
Assay Overview: EIS sensor, Or10a liposomes on gold electrode (Example 1)
Assay type: binding
Condition Set: Or10a liposomes, EIS
Parameter: EC50

Prompt: Returns the measured EC50 for the input molecule. Input: COC(=O)c1ccccc1O [methyl salicylate]
Completion: ~1 nM

====

Test System: OR35a (Drosophila melanogaster, UniProt Q9V3Q2)
Sequence (Q9V3Q2 whole entry): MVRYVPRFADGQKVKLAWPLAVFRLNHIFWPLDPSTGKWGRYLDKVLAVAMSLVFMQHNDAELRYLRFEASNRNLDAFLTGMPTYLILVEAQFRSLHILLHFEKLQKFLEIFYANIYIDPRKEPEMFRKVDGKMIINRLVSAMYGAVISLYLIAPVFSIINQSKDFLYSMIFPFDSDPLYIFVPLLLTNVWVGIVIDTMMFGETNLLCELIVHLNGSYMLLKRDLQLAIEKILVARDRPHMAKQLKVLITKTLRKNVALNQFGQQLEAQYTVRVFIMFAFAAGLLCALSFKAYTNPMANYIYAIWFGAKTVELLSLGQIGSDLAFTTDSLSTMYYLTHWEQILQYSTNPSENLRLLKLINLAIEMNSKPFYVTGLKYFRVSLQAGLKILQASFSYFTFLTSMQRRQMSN
Assay Overview: CNT-FET sensor, OR35a nanodiscs via his-tag/Ni-NTA (Example 2)
Type: binding
Condition Set: present study, Table 4
Parameter: EC50

Prompt: Returns the measured EC50 for the input molecule. Input: CCC/C=C/C=O [E2-hexenal]
Completion: ~300 pM

====

Test System: Or22a (Drosophila melanogaster)
Sequence (P81909 whole entry): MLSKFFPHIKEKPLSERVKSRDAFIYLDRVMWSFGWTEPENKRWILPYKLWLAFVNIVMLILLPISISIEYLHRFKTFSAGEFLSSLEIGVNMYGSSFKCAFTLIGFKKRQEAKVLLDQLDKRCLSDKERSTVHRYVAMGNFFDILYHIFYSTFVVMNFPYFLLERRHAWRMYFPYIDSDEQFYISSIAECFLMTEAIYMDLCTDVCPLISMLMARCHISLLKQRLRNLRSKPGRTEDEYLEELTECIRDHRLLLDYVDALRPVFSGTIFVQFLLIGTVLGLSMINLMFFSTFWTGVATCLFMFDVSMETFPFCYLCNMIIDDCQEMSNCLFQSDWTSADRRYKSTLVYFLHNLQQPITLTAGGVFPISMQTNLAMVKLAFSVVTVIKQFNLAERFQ
Assay Overview: EIS sensor, Or22a liposomes on gold electrode (Example 1)
Condition Set: Or22a liposomes, EIS
Parameter: EC50

Prompt: Missing value: EC50, Or22a (Drosophila melanogaster), entry CCCCCC(=O)OC [methyl hexanoate] . Fill in?
Completion: ~10 nM
